# Lookup of reported TGI keyed by entry
tested on: SF-295 CNS; assay: NCI tumour cell line growth inhibition, 48 h
Report only the number, with the unit µM understood.

Lookup: Check the records and state TGI for Cc1ccc(N/C(Sc2ccccc2)=C(/C(Cl)=C(Cl)Cl)[N+](=O)[O-])c(C)c1
Found: 47

Lookup: Supply recorded TGI for CC(C)(N)CO[C@H]1C[C@H]2CC[C@@]1(C)C2(C)C here.
Found: 39.3

Lookup: Return value of TGI for input CC1=C(C)C(=O)C2=C(OCCCO2)C1=O , no commentary.
Found: 70.9

----------
tested on: OVCAR-8 ovarian; assay: NCI tumour cell line growth inhibition, 48 h
Quantity Measured: TGI

Lookup: Supply reported TGI belonging to this compound: CC(NC(=O)C(OC(=O)C(C)NC(=O)OC(C)(C)C)C(C)C)C(=O)OC(C(=O)O)C(C)C (centres undefined)
Found: > 100 µM

Lookup: Report measured TGI; entry is CC(C)(N)CO[C@H]1C[C@H]2CC[C@@]1(C)C2(C)C
Found: 53.1 µM

Lookup: Hello, please tell me recorded TGI for this one: COc1ccc(-c2cc(-c3ccccc3)n(C3OCC(OC(C)=O)C(OC(C)=O)C3OC(C)=O)c(=S)c2C#N)cc1 (centres undefined)
Found: > 100 µM

Lookup: Answer with the recorded TGI of O=C(CC(=O)c1ccc([N+](=O)[O-])cc1)C(=O)Nc1nccs1 only.
Found: > 100 µM

Lookup: Supply TGI value. Item: O=c1[nH]c(=O)n(C2CC(O)C(CO)O2)cc1NN=NCCc1ccccc1 (centres undefined)
Found: > 100 µM

Lookup: Supply reported TGI belonging to this compound: CC1(C)OC(=O)[C@@](C)([C@H](O)c2ccccc2)O1
Found: > 100 µM

Lookup: Consider the compound O=S1CSCS1 (centres undefined) . State its measured TGI.
Found: > 100 µM

Lookup: Could you please provide reported TGI for COC1C(O)C(C)OC(OC2C(Oc3cccc4c(O)c5c(=O)oc6ccc(C)c7c(=O)oc(c34)c5c67)OC(C)C3O[C@H](c4ccccc4)OC32)C1O (some centres undefined) ? Thanks!
Found: 8.23 µM

Lookup: Output TGI of COc1cc(C2S/C(=C/c3ccccc3)C(=O)N2c2cc(Cl)ccc2Cl)cc(OC)c1OC (centres undefined)
Found: > 100 µM
